Tested on: SK-MEL-28
measurement description: NCI tumour cell line growth inhibition, 48 h
Calls of active or inactive are those of the source. Rule as the data show it: active = GI50 up to about 1.1 µM and inactive = higher.
experimental endpoint: GI50

Could you report GI50 for every entry in the following list?
1. COC(=O)C1=CO[C@@H](OC2OC(CO)C(O)C(O)C2O)[C@H]2[C@@H](C)[C@@H](O)[C@@H](O)[C@@H]12 (some centres undefined)
2. CCN(CCCl)CCNc1c2ccccc2nc2ccc(OC)cc12
3. O=P1(C(O)/C=C/c2ccccc2)N(Cc2ccccc2)[C@H](c2ccccc2)[C@@H](c2ccccc2)N1Cc1ccccc1 (some centres undefined)
4. COc1ccc2nc3c(c(N)c2c1)C1CCC3C1(C)C (centres undefined)

Return:
> 100 µM (inactive)
1.52 µM (inactive)
35.2 µM (inactive)
30.8 µM (inactive)

---

System: HOP-62
measurement description: NCI tumour cell line growth inhibition, 48 h
Calls of active or inactive are those of the source. Cut-off read from the data, not from the text of the source: active = GI50 up to about 1.1 µM and inactive = higher.
What GI50 was measured for each of the following?

Solved cases below.
- compound: "Cc1c2c(OCC3CCCCO3)nn(C)c(=O)c2c(C)n1-c1ccccc1 (stereo unspecified)"
  GI50: "19.2 µM (inactive)"
- compound: "Cc1cccc2c1CC1(C2)Cc2c(C)cccc2C1=O (stereo unspecified)"
  GI50: "23.6 µM (inactive)"
- compound: "O=C(O)CSc1cc(-c2ccccc2)nc2ccccc12"
  GI50: "48.2 µM (inactive)"
- compound: "CCOC(=O)C(NC(=O)c1cccc(Cl)c1)(Nc1cccc(C)c1)C(F)(F)F (stereo unspecified)"
  GI50: "17.7 µM (inactive)"
- compound: "O=C(c1ccc(F)cc1)c1cccc(C(=O)c2ccc(F)cc2)n1"
  GI50: "20.1 µM (inactive)"

Could you report GI50 for every entry in the following list?
1. N#CC(CC(=O)O)=C(c1ccccc1)c1ccccc1
2. COc1ccc2c([nH]c3cc(O)c(C)cc32)c1C=O
3. CN1C(c2ccccc2)CC(=NO)CC1c1ccccc1 (stereo unspecified)
4. O=C(c1ccccc1)c1c(C(F)(F)F)[n+]([O-])c2cc(F)c(F)cc2[n+]1[O-]
5. Cc1cc(Br)cc(C)c1NC(=O)C(=O)C(C(=O)c1ccc(Cl)c(Cl)c1)C1OC(=O)c2ccccc21 (stereo unspecified)
6. CC1=NCCN=C(C)C1/N=N/c1ccc2[nH]c(C)nc2c1

Return:
> 100 µM (inactive)
> 25 µM (inactive)
> 100 µM (inactive)
1.25 µM (inactive)
43.6 µM (inactive)
22.1 µM (inactive)

---

Test system: HCT-15
measurement description: NCI tumour cell line growth inhibition, 48 h
What GI50 was measured for each of the following?

- molecule: "CC(C)(C)C1=C(Br)C(F)(C(C)(C)C)OP1(=O)c1ccccc1 (stereo not given)"
  observed: "19.5 µM"
- molecule: "Cc1cc(Br)cc(C)c1NC(=O)C(=O)C(C(=O)c1ccc(Cl)c(Cl)c1)C1OC(=O)c2ccccc21 (stereo not given)"
  observed: "50.2 µM"
- molecule: "CCCCN(CCCC)CC(O)c1cc(-c2ccc(C(F)(F)F)cc2)nc(-c2ccc(C(F)(F)F)cc2)c1 (stereo not given)"
  observed: "26.4 µM"
- molecule: "N#CC(CC(=O)O)=C(c1ccccc1)c1ccccc1"
  observed: "> 100 µM"
- molecule: "O=C1Nc2ccccc2/C1=N/Nc1nc(-c2ccc(Cl)c(Cl)c2)cs1"
  observed: "6.24 µM"
- molecule: "CCn1c(SCC(=O)N/N=C2\\SCC(=O)N2c2ccc(C)cc2)nc2ccccc2c1=O"
  observed: "32.1 µM"
- molecule: "O=C1CSC(c2ccc([N+](=O)[O-])cc2)N1c1ccc(-n2c(-c3ccccc3)nc3ccccc3c2=O)cc1 (stereo not given)"
  observed: "41.3 µM"
- molecule: "CC(C)c1cccc(C(C)C)c1NC(=O)C(=O)C(C(=O)c1ccccc1-c1ccccc1)C1OC(=O)c2ccccc21 (stereo not given)"
  observed: "18.4 µM"
- molecule: "C1=CC(=[N+]2N=C(c3ccccc3)CC2c2ccccc2)C=CC1=C1SC(c2ccccc2)(c2ccccc2)c2ccccc21.[O-][Cl+3]([O-])([O-])[O-] (stereo not given)"
  observed: "> 100 µM"
- molecule: "Cc1c(C#N)c(=N)oc2ccccc12"
  observed: "83.2 µM"

Could you report GI50 for every entry in the following list?
1. Cc1ccccc1C(=O)C#Cc1cn(C2CC(O)C(CO)O2)c(=O)[nH]c1=O (stereo not given)
2. Cc1ccc(/C=c2\c(=O)[nH]c3nc4ccccc4c(=O)n23)cc1

Return:
1: > 100 µM; 2: 34.8 µM

Could you report GI50 for every entry in the following list?
1. CO/N=C(\C)c1cccc(Nc2c3ccccc3nc3occc23)c1
2. CCC(=O)N(c1ccccc1)C(C)CN1CCC(O)(c2cccc(C(F)(F)F)c2)CC1 (stereo not given)

Return:
1: 6.21 µM; 2: 30.6 µM

Could you report GI50 for every entry in the following list?
1. CC(=O)OC1C=C(C=O)C(O)(C=O)C2(C)CCCC(C)(C)C12 (stereo not given)
2. COCOC1/C=C/CCCCC2=C(C)C=C(C1)O2 (stereo not given)
3. COc1cc(C(=O)Oc2c(C#N)sc3c2c(=O)n(-c2ccccc2)c(=S)n3-c2ccccc2)cc(OC)c1OC
4. O=C(c1ccccc1)N1C(=S)N(c2ccc([N+](=O)[O-])cc2)C(=N/c2ccccc2)/C1=N\c1ccccc1
5. COc1ccc2c(c1)C/C(=C\c1ccc(O)c(OC)c1)C2=O

Return:
["0.6 µM", "> 100 µM", "18.9 µM", "65.2 µM", "> 100 µM"]

Enquiry: Look at this molecule and give its reported GI50. `c1cc2nnc1SCCCSc1ccc(nn1)SCCCSc1ccc(nn1)SCCCS2`
Return: > 100 µM

---

System: Hs-578T
measurement description: NCI tumour cell line growth inhibition, 48 h
Activity calls are given as the source filed them. No stated cut-off is given here; in the data, active = GI50 up to about 1.1 µM and inactive = higher.
Your answer must be one of the following: class 1 = active, class 0 = inactive

- compound: "C=C1C(=O)O[C@H]2C/C(C)=C/CC[C@@]3(C)O[C@](C)(CC[C@@H]3I)[C@@H](I)C[C@@H]12"
  answer label: "class 0"
- compound: "Cc1ccccc1C(=O)C#Cc1cn(C2CC(O)C(CO)O2)c(=O)[nH]c1=O (stereo not drawn)"
  answer label: "class 0"
- compound: "COc1cc(S(=O)(=O)Nc2ccc(-c3csc(/N=C\\c4ccccc4O)n3)cc2)ccc1Cl"
  answer label: "class 0"
- compound: "CC(C)(C)n1c(=O)n2c(-c3ccccc3)c(-c3ccccc3)n2c1=O"
  answer label: "class 0"
- compound: "Cc1coc2c1[C@@H](O)[C@@]1(C)[C@H](CCC[C@@H]1C)C2"
  answer label: "class 0"
- compound: "O=C(O)CCC(N/N=N/c1ccc(-c2nc3ccccc3[nH]2)cc1)C(=O)O (stereo not drawn)"
  answer label: "class 0"
- compound: "COC(=O)c1c(C(=O)OC)c2ccccn2c1-c1cc(C)cc2c1C(=O)C=CC2=O"
  answer label: "class 0"
- compound: "COc1ccccc1C#C/C=C\\C#Cc1ccccc1C#N"
  answer label: "class 0"

Enquiry: Dear colleague, could you share the recorded outcome for `COc1ccc2c(c1)C/C(=C\c1ccc(O)c(OC)c1)C2=O` when you have a moment?
Return: class 0

Enquiry: Dear colleague, could you share the recorded outcome for `N#Cc1nnn(C2CCCCC2)c1O` when you have a moment?
Return: class 0

Enquiry: Dear colleague, could you share the recorded outcome for COC1CC(OC2C(C)OC(OC3C(C)OC(OC4C(O)CC(O[C@H]5CC[C@@]6(C)C(=CC[C@]7(O)[C@@H]6C[C@@H](OC(C)=O)[C@@]6(C)[C@]7(O)CC[C@@]6(O)C(C)=O)C5)OC4C)CC3OC)CC2OC)OC(C)C1O (stereo partly drawn) when you have a moment?
Return: class 0

Enquiry: Dear colleague, could you share the recorded outcome for `Oc1cc(Cc2ccccc2)c(Cc2ccccc2)cc1O` when you have a moment?
Return: class 0

Enquiry: Dear colleague, could you share the recorded outcome for `Cc1nc2ccccc2c(=O)n1NC(=O)c1ccc([N+](=O)[O-])cc1` when you have a moment?
Return: class 0

Enquiry: Dear colleague, could you share the recorded outcome for `COc1cc(N(CCC#N)CCC#N)ccc1C(=N/NC(=O)c1cc(Br)ccc1O)/N=N/c1ccccc1` when you have a moment?
Return: class 0

---

System: DU-145
measurement description: NCI tumour cell line growth inhibition, 48 h
Activity calls are given as the source filed them. Cut-off read from the data, not from the text of the source: active = GI50 up to about 1.1 µM and inactive = higher. Where a SMILES comes first, the peptide text is derived from it. The star is where a group is joined. OSu = O=C1CCC(=O)N1O*; OBn = c1ccc(CO*)cc1; Bn = c1ccc(C*)cc1
experimental endpoint: GI50

- molecule: "C1=C2C3=[N+](CCCC3)CC2Cc2ccsc21 (stereo not given)"
  experimental endpoint: "GI50"
  observed: "> 100 µM (inactive)"
- molecule: "NC(=S)SC1=NC(=O)C2(NN1)c1ccccc1-c1ccccc12"
  experimental endpoint: "GI50"
  observed: "> 10 µM (inactive)"
- molecule: "CC(C)CC(NC(=O)C(N)CCC(=O)OCc1ccccc1)C(=O)NC(COCc1ccccc1)C(=O)NC(Cc1ccccc1)C(=O)ON1C(=O)CCC1=O (stereo not given) (H-E(OBn)LS(Bn)F-OSu; configuration not given here)"
  experimental endpoint: "GI50"
  observed: "27.7 µM (inactive)"
- molecule: "COc1ccc(-n2c(=O)c3nc(S)[nH]c3n(-c3ccc(OC)cc3)c2=S)cc1"
  experimental endpoint: "GI50"
  observed: "> 100 µM (inactive)"

Would you kindly look at the next entry?
Enquiry: Look at this molecule and give its reported GI50. `O=C(O)CCC(=O)c1ccc2sc3ccccc3c2c1`
Return: > 100 µM (inactive)
